For each record, write down the corresponding log10 IC50.
Tested on: MRC-5 human embryonal lung fibroblasts
protocol-details: MTT antiproliferative assay (72 h)
Assay type: cell-based
setup-conditions: Homo sapiens, MRC5; MRC-5, 72 h MTT, n = 3; read-out: Antiproliferative Effect (IC50 ± SD)
Annotation: log10 of IC50, µM basis.

Reference set, count: 3
compound: CC(=O)N[C@H]1CC=C2C3=CC(=O)[C@@H]4C[C@H]5OC(C)(C)O[C@H]5C[C@]4(C)[C@H]3CC[C@@]21C
target-desc: MRC-5 human embryonal lung fibroblasts
recorded-number: 1.08

compound: CC(=O)O[C@H]1C[C@]2(C)C3=CC[C@@]4(C)C(=CC[C@@H]4[C@@]4(C)OC(C)(C)O[C@@H]4CCC(C)(C)O)C3=C(O)C(=O)[C@@]23C[C@@H]13
target-desc: MRC-5 human embryonal lung fibroblasts
recorded-number: 0.77

compound: CC(=O)O[C@H]1C[C@@]2(C)C(=C(O)C(=O)C3=C2CC[C@@]2(C)C3=CC[C@@H]2[C@@]2(C)OC(C)(C)O[C@@H]2CCC(C)(C)O)C[C@H]1O [Compound 16, calonysterone 2-acetate 20,22-acetonide]
target-desc: MRC-5 human embryonal lung fibroblasts
recorded-number: 1.83

Can you give me log10 IC50 for all of these, one by one?
1. CC(=O)[C@H]1CC[C@@]2(F)C3=CC(=O)[C@@H]4C[C@H]5OC(C)(C)O[C@H]5C[C@]4(C)[C@H]3CC[C@]12C
2. CC(=O)[C@H]1CC[C@@]2(O)C3=CC(=O)[C@@H]4C[C@H]5OC(C)(C)O[C@H]5C[C@]4(C)C3=CC[C@]12C
3. CC(=O)[C@H]1CC[C@@]2(O)C3=CC(=O)[C@@H]4C[C@H]5OC(C)(C)O[C@H]5C[C@]4(C)[C@H]3[C@H](O)C[C@]12C

[1.00, 1.32, 1.33]
